Molecular target: BRD4 (BD1) (Homo sapiens)
Construct: Each member comprises two tandem bromodomains (BD1 and BD2) for recognizing the acetylated lysine residues
Assay: BRD4 (BD1) bromodomain binding, HTRF
Details: 2 h incubation at r.t.
Readout label: pIC50
# pIC50 = -log10(concentration in molar units)

Examples from the recorded data:
Molecule	Experimental system	Readout label	Readout number
CCS(=O)(=O)Cc1ccc2c(c1)-c1cn(C)c(=O)cc1[C@H](CCO)N=C2c1ccc(F)cc1 [Compound 4088]	BRD4 (BD1) (Homo sapiens)	pIC50	8.52
CCS(=O)(=O)Nc1cc2c(cc1Cl)C(c1ccc(F)cc1)=NCc1cc(=O)n(C)cc1-2 [Compound 4031]	BRD4 (BD1) (Homo sapiens)	pIC50	8.70
CCS(=O)(=O)Cc1ccc2c(c1)-c1cn(C)c(=O)cc1[C@@H](C)N=C2c1ccc(F)cc1 [Compound 4033]	BRD4 (BD1) (Homo sapiens)	pIC50	6.47

Could you now look at the following molecule, please?
Data request: Read off the recorded pIC50 for CCS(=O)(=O)Cc1ccc2c(c1)-c1cn(C)c(=O)cc1[C@H](CC(=O)O)N=C2c1ccc(F)cc1 [Compound 4067]
Data returned: 8.22

* * *

Biological target: BRD4 (BD1) (Homo sapiens, UniProt O60885)
Construct: Each member comprises two tandem bromodomains (BD1 and BD2) for recognizing the acetylated lysine residues
Assay: BRD4 (BD1) bromodomain binding, HTRF
Settings: 2 h incubation at r.t.
Readout label: log10(IC50) (log10 of the value in nM)
Quick note: numbers are log10 of IC50, with nM as the unit.

Examples from the recorded data:
Compound	Experimental system	Readout number
Cn1cc2c(cc1=O)[C@H](CC(N)=O)N=C(c1ccc(Cl)cc1)c1ccccc1-2	BRD4 (BD1) (Homo sapiens, UniProt O60885)	0.60
CCNC(=O)C[C@@H]1N=C(c2ccc(Cl)cc2)c2cc(F)ccc2-c2cn(C)c(=O)cc21	BRD4 (BD1) (Homo sapiens, UniProt O60885)	0.60
CCS(=O)(=O)Cc1ccc2c(c1)-c1cn(C)c(=O)cc1[C@H](C)N=C2c1ccc(F)cc1F	BRD4 (BD1) (Homo sapiens, UniProt O60885)	0.00
CCC(=O)Nc1cc2c(cc1F)C(c1ccc(F)cc1)=N[C@@H](C)c1cc(=O)n(C)cc1-2	BRD4 (BD1) (Homo sapiens, UniProt O60885)	0.90
CCNS(=O)(=O)c1ccc2c(c1)-c1cn(C)c(=O)cc1[C@H](C)N=C2c1ccc(F)cc1	BRD4 (BD1) (Homo sapiens, UniProt O60885)	0.78

Data request: Write down the reported log10(IC50) (system: BRD4 (BD1) (Homo sapiens, UniProt O60885)) of Cn1cc2c(c1C#N)CCN(c1ccc(F)cc1)c1ccc(CS(C)(=O)=O)cc1-2
Data returned: 2.04

Data request: Write down the reported log10(IC50) (system: BRD4 (BD1) (Homo sapiens, UniProt O60885)) of CC(C)S(=O)(=O)Cc1ccc2c(c1)-c1cn(C)c(=O)cc1[C@H](C)N=C2c1ccc(F)cc1
Data returned: 0.00

Data request: Write down the reported log10(IC50) (system: BRD4 (BD1) (Homo sapiens, UniProt O60885)) of CCNC(=O)C[C@@H]1N=C(c2ccc(F)cc2)c2ccc(CS(C)(=O)=O)cc2-c2cn(C)c(=O)cc21
Data returned: 0.30

Data request: Write down the reported log10(IC50) (system: BRD4 (BD1) (Homo sapiens, UniProt O60885)) of CCS(=O)(=O)Nc1cc2c(cc1F)C(c1ccc(F)cc1)=N[C@@H](C1CC1)c1cc(=O)n(C)cc1-2
Data returned: 0.30

Data request: Write down the reported log10(IC50) (system: BRD4 (BD1) (Homo sapiens, UniProt O60885)) of CCS(=O)(=O)Cc1ccc2c(c1)-c1cn(C)c(=O)cc1[C@H](C)N=C2c1ccc(F)cc1OC
Data returned: 0.60

Data request: Write down the reported log10(IC50) (system: BRD4 (BD1) (Homo sapiens, UniProt O60885)) of CCS(=O)(=O)Nc1ccc2c(c1)-c1cn(C)c(=O)cc1CN=C2c1ccc(F)cc1
Data returned: 0.48

Data request: Write down the reported log10(IC50) (system: BRD4 (BD1) (Homo sapiens, UniProt O60885)) of CCS(=O)(=O)Cc1ccc2c(c1)-c1cn(C)c(=O)cc1[C@H](C(C)C)N=C2c1ccc(F)cc1
Data returned: 0.30

Data request: Write down the reported log10(IC50) (system: BRD4 (BD1) (Homo sapiens, UniProt O60885)) of Cn1cc2c(cc1=O)CN=C(c1ccc(F)cc1)c1ccc(CS(C)(=O)=O)cc1-2
Data returned: 0.78

Data request: Write down the reported log10(IC50) (system: BRD4 (BD1) (Homo sapiens, UniProt O60885)) of CCS(=O)(=O)Cc1ccc2c(c1)-c1cn(C)c(=O)cc1[C@H](C)N=C2c1ccc(F)c(O)c1
Data returned: 0.30

Data request: Write down the reported log10(IC50) (system: BRD4 (BD1) (Homo sapiens, UniProt O60885)) of C[C@@H]1N=C(c2ccc(F)cc2)c2cc(Cl)c(NS(C)(=O)=O)cc2-c2cn(C)c(=O)cc21
Data returned: 0.48

Data request: Write down the reported log10(IC50) (system: BRD4 (BD1) (Homo sapiens, UniProt O60885)) of CCS(=O)(=O)Cc1ccc2c(c1)-c1cn(C)c(=O)cc1C1(CC1)N=C2c1ccc(F)cc1
Data returned: 1.08

Data request: Write down the reported log10(IC50) (system: BRD4 (BD1) (Homo sapiens, UniProt O60885)) of CCS(=O)(=O)Cc1cc2c(cc1OC)C(c1ccc(F)cc1)=NCc1cc(=O)n(C)cc1-2
Data returned: 0.48

Data request: Write down the reported log10(IC50) (system: BRD4 (BD1) (Homo sapiens, UniProt O60885)) of C[C@@H]1N=C(c2ccc(F)cc2)c2cc(Cl)c(N)cc2-c2cn(C)c(=O)cc21
Data returned: 0.60

* * *

Test: Metabolic stability in human liver microsomes
Format: in vitro ADME
Conditions: pH 7.4; human liver microsomes 0.5 mg/mL, NADPH, 37° C.; read-out: HLM_CLint
Collected CLint scaled at 1 µM values appear next to each entry.
Report only the number, with the unit mL/min/kg understood.

Examples from the recorded data:
Compound	Endpoint unit	CLint scaled at 1 µM
CCS(=O)(=O)Cc1ccc2c(c1)-c1nn(C)c(=O)cc1C(C)N=C2c1ccc(F)cc1 (stereo not shown)	mL/min/kg	0.59
CCNC(=O)C[C@@H]1N=C(c2ccc(Cl)cc2)c2ccccc2-c2cn(C)c(=O)cc21	mL/min/kg	50.8
Cn1cc2c(cc1=O)[C@H](CC(N)=O)N=C(c1ccc(Cl)cc1)c1ccccc1-2	mL/min/kg	2.03
C[C@@H]1N=C(c2ccc(F)cc2)c2ccc(CS(=O)(=O)N(C)C)cc2-c2cn(C)c(=O)cc21	mL/min/kg	12.4
CCS(=O)(=O)Cc1ccc2c(c1)-c1cn(C)c(=O)cc1CN=C2c1ccc(Cl)cc1	mL/min/kg	1.54

Data request: Read off the recorded CLint scaled at 1 µM for CCNC(=O)C[C@@H]1N=C(c2ccc(F)cc2)c2cc(OC)ccc2-c2cn(C)c(=O)cc21
Data returned: 14.3

Data request: Read off the recorded CLint scaled at 1 µM for CCS(=O)(=O)Cc1ccc2c(c1)-c1cn(C)c(=O)cc1N(C)N=C2c1ccc(F)cc1
Data returned: 2.39

* * *

Assay: Metabolic stability in mouse liver microsomes
Format: in vitro ADME
Settings: mouse liver microsomes 0.5 mg/mL, NADPH, 37° C.
Readout label: MLM_T1/2

Molecule	Readout label	Result
C[C@@H]1N=C(c2ccc(F)cc2)c2ccc(CS(N)(=O)=O)cc2-c2cn(C)c(=O)cc21 [Compound 4071]	MLM_T1/2	∞
CCS(=O)(=O)Nc1cc2c(cc1Cl)C(c1ccc(F)cc1)=NCc1cc(=O)n(C)cc1-2 [Compound 4031]	MLM_T1/2	∞
CC[C@@H]1N=C(c2ccc(F)cc2)c2ccc(CS(=O)(=O)CC)cc2-c2cn(C)c(=O)cc21 [Compound 4038]	MLM_T1/2	∞

* * *

Collected AUC(0-t) values appear next to each entry.
Test: Cassette pharmacokinetic study, intravenous or oral administration
Format: in vivo, female Balb/c nude mice
Conditions: female, Balb/c nude, mouse, whole blood; IV 0.5 mg/kg, N = 3, cassette

Examples from the recorded data:
Compound	AUC(0-t)
CCS(=O)(=O)Nc1ccc(Oc2ccc(F)cc2F)c(-c2cn(C)c(=O)c3[nH]ccc23)c1 [ABBV-075]	0.457 µg·h/mL
CCS(=O)(=O)Nc1ccc2c(c1)-c1cn(C)c(=O)cc1CN=C2c1ccc(F)cc1 [Compound 4018]	0.199 µg·h/mL

Could you now look at the following compound, please?
Data request: Read off the recorded AUC(0-t) for CCS(=O)(=O)Cc1ccc2c(c1)-c1cn(C)c(=O)cc1[C@H](C)N=C2c1ccc(F)cc1 [Compound 4026]
Data returned: 1.1 µg·h/mL
